Data provenance: patent US20220242827A1

Test: Storage stability in climate chamber at 25° C. and 60% relative humidity for 24 months
Format: physicochemical
Details: 24 months at 25° C. and 60% relative humidity; normalization more than 99.0
Description: The improved stability of the resulting polymorphic form was confirmed by experiments in a climate chamber at 25° C. and 60% humidity. Comparison of Critical Quality Indicators of Known and Novel Polymorphic Forms of FMP After 24 Months of Storage at 25° C. and 60% Relative Humidity
reportedMetric: Quantification (%)
Give the value, in units of %, as a plain number.

[[record]]
molecule = "CC1=NN(c2ccccc2)C(=O)C1 [A new form of FMP, 1-phenyl-3-methyl-5-pyrazolone]"
readingunit = "%"
readoutvalue = 99.7


Entry CC1=NN(c2ccccc2)C(=O)C1 [Known form of FMP, 1-phenyl-3-methyl-5-pyrazolone, reference compound] — recorded Quantification = 99.6
